meta.source: patent US6432960B1

molecular target: NPY Y1 receptors (Homo sapiens, UniProt P25929); construct: assayed in SK-N-MC (human neuroplastoma) cell membranes; endogenous in cells; assay: Binding affinity at NPY Y1 receptors in SK-N-MC cell membranes, iodine-125-labeled I-PYY radioligand; settings: SK-N-MC (human neuroblastoma) cell membranes; 125I-PYY radioligand
Sequence (P25929 whole entry): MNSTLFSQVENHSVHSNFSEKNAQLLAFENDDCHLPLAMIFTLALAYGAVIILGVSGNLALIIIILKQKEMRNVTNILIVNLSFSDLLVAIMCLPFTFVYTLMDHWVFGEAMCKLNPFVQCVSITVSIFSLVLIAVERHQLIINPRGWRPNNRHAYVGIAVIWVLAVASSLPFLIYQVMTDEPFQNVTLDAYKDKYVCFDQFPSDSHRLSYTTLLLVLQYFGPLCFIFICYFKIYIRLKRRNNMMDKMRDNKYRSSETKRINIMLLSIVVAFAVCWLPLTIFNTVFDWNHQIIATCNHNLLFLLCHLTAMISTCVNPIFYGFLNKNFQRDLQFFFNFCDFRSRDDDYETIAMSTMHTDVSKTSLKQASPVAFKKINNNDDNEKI
So I've got a bunch of compounds here, and I need their IC50 values.
Numbers only, in nM.

                                        smi  assay_endpoint  unit_descriptor  measured_number
0  COC(=O)C1=C(C)NC(C)=C(C(=O)OC)C1c1cccc(Nc2c(NCCCN3CCC(c4cccc(OC)c4)CC3)c(=O)c2=O)c1            IC50               nM             24.6
1  COC(=O)C1=C(C)NC(C)=C(C(=O)OC)C1c1ccc(F)c(Nc2c(NCCCN3CCC(c4cccc(OC)c4)CC3)c(=O)c2=O)c1            IC50               nM             65.8
2  COC(=O)C1=C(C)NC(C)=C(C(=O)OC)C1c1ccc(F)c(Nc2c(NCCCN3CCN(C4CCCCC4)CC3)c(=O)c2=O)c1            IC50               nM              950

Prompt line: May I ask what IC50 has been recorded for COC(=O)C1=C(C)NC(C)=C(C(=O)OC)C1c1cccc(Nc2c(NCCCN3CCN(C4CCCCC4)CC3)c(=O)c2=O)c1 ?
Response line: 140

----------
ASSAY_ENDPOINT: melting point

# count of solved cases: 4
>>> df
                                        smi         result
0  CCOc1c(Nc2cccc(C3C(C(=O)OC)=C(C)NC(C)=C3C(=O)OC)c2)c(=O)c1=O  249 to 252 °C
1  CCOc1c(Nc2cc(C3C(C(=O)OC)=C(C)NC(C)=C3C(=O)OC)ccc2F)c(=O)c1=O  203 to 205 °C
2  COC(=O)C1=C(C)NC(C)=C(C(=O)OC)C1c1ccc(F)c(Nc2c(NCCCN3CCN(C4CCCCC4)CC3)c(=O)c2=O)c1  229 to 230 °C
3  COC(=O)C1=C(C)NC(C)=C(C(=O)OC)C1c1cccc(Nc2c(NCCCN3CCN(C4CCCCC4)CC3)c(=O)c2=O)c1  210 to 212 °C

Now for a further compound.
Prompt line: Which measured melting point value corresponds to COC(=O)C1=C(C)NC(C)=C(C(=O)OC)C1c1ccc(F)c(Nc2c(NCCCN3CCC(c4cccc(OC)c4)CC3)c(=O)c2=O)c1 ?
Response line: 205 to 207 °C
